method description: physchem
condition info: buffer
Description: Compound was evaluated for its solubility in water
metric: solubility

molecule | result
CC(=O)/N=c1/sc(S(N)(=O)=O)nn1C [METHAZOLAMIDE] | 5 mM

---

Parameter: I50. Scope: all listed entries.
tested system: Carbonic anhydrase

given smiles | I50
NS(=O)(=O)C1=NN2C(=NC(=O)NS2(=O)=O)S1 | 50 nM
NS(=O)(=O)c1nn2c(=O)[nH]c(=O)nc2s1 | 20 nM
CCn1c(=O)nc2sc(S(N)(=O)=O)nn2c1=O | 20 nM
NS(=O)(=O)c1nn2c(O)cc(=O)nc2s1 | 37 nM
NS(=O)(=O)C1=NN2CCS(=O)(=O)N=C2S1 | 14 nM
COc1cc(=O)nc2sc(S(N)(=O)=O)nn12 | 50 nM
NS(=O)(=O)c1nn2c(=O)n(CCCl)c(=O)nc2s1 | 18 nM
Cn1c(=O)nc2sc(S(N)(=O)=O)nn2c1=O | 20 nM
